target: human IL-6 (human, UniProt P05231 30-212); test: SPR Biacore, supernatant, Protein A capture, 37 C
Sequence (P05231 30-212 limits assumed): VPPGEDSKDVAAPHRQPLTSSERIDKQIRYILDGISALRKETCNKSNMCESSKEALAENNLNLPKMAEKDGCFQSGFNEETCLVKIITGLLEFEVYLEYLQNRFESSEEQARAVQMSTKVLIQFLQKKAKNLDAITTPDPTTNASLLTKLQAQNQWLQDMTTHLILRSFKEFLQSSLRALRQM
List of koff values.

Reference set (6 entries):
binder="Anti-IL-6 antibody, heavy chain S35H, G66D, Q99V / light chain WT (antibody, IgG1, V domains shown, IgG1; variable domains only) VH: EVQLVESGGGLVQPGGSLRLSCAASGFTFSPFAMHWVRQAPGKGLEWVAKISPGGSWTYYSDTVTDRFTFSLDTSKSTAYLQMNSLRAEDTAVYYCARVLWGYYALDIWGQGTLVTVSS VL: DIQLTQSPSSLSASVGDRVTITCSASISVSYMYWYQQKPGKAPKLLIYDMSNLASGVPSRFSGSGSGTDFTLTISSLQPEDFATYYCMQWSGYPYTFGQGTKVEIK" assay_value="0.00431 s⁻¹"
binder="Anti-IL-6 antibody, heavy chain S35H, G66D, Q99H / light chain M32L, M50D, N52S, M88Q (antibody, IgG1, V domains shown, IgG1; variable domains only; VL is variant III) VH: EVQLVESGGGLVQPGGSLRLSCAASGFTFSPFAMHWVRQAPGKGLEWVAKISPGGSWTYYSDTVTDRFTFSLDTSKSTAYLQMNSLRAEDTAVYYCARHLWGYYALDIWGQGTLVTVSS VL: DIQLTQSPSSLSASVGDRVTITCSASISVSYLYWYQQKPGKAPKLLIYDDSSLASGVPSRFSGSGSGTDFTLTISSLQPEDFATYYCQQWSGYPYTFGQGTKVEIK" assay_value="0.00441 s⁻¹"
binder="Anti-IL-6 antibody, heavy chain S35H, G66D, L100H / light chain M32L, M50D, N52S, M88Q (antibody, IgG1, V domains shown, IgG1; variable domains only; VL is variant III) VH: EVQLVESGGGLVQPGGSLRLSCAASGFTFSPFAMHWVRQAPGKGLEWVAKISPGGSWTYYSDTVTDRFTFSLDTSKSTAYLQMNSLRAEDTAVYYCARQHWGYYALDIWGQGTLVTVSS VL: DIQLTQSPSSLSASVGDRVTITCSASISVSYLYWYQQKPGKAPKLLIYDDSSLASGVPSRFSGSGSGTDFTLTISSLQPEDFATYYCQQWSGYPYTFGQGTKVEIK" assay_value="0.00129 s⁻¹"
binder="Anti-IL-6 antibody, heavy chain G66D / light chain M32L, M50D, N52S, M88Q (antibody, IgG1, V domains shown, IgG1; variable domains only; VL is variant III) VH: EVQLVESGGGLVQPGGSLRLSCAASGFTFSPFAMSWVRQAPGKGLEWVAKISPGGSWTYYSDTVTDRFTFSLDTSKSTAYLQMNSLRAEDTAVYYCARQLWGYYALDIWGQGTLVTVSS VL: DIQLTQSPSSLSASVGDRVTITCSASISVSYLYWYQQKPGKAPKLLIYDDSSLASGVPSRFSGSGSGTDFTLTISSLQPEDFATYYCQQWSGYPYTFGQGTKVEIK" assay_value="0.000654 s⁻¹"
binder="Anti-IL-6 antibody, heavy chain S35H, G66D, Q99I / light chain WT (antibody, IgG1, V domains shown, IgG1; variable domains only) VH: EVQLVESGGGLVQPGGSLRLSCAASGFTFSPFAMHWVRQAPGKGLEWVAKISPGGSWTYYSDTVTDRFTFSLDTSKSTAYLQMNSLRAEDTAVYYCARILWGYYALDIWGQGTLVTVSS VL: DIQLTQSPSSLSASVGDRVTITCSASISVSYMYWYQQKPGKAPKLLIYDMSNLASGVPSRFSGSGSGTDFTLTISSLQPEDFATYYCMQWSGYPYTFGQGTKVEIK" assay_value="0.00335 s⁻¹"
binder="Anti-IL-6 antibody, heavy chain S35H, G66D, Q99F / light chain WT (antibody, IgG1, V domains shown, IgG1; variable domains only) VH: EVQLVESGGGLVQPGGSLRLSCAASGFTFSPFAMHWVRQAPGKGLEWVAKISPGGSWTYYSDTVTDRFTFSLDTSKSTAYLQMNSLRAEDTAVYYCARFLWGYYALDIWGQGTLVTVSS VL: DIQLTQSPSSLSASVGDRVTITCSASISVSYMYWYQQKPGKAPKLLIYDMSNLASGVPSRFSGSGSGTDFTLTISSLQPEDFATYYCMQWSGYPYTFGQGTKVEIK" assay_value="0.00166 s⁻¹"

// next entry
For the binder Anti-IL-6 antibody, heavy chain S35H, G66D, Q99D / light chain WT (antibody, IgG1, V domains shown, IgG1; variable domains only) VH: EVQLVESGGGLVQPGGSLRLSCAASGFTFSPFAMHWVRQAPGKGLEWVAKISPGGSWTYYSDTVTDRFTFSLDTSKSTAYLQMNSLRAEDTAVYYCARDLWGYYALDIWGQGTLVTVSS VL: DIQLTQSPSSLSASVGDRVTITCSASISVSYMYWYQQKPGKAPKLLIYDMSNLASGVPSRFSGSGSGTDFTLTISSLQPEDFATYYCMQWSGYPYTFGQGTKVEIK , report koff. 0.00302 s⁻¹
